- test system: CDK2/Cyclin A2 (Homo sapiens)
- procedure summary: Inhibition of CDK2/Cyclin A (unknown origin)
result type: IC50 (µM)

| structure smiles string | test system | IC50 (µM) |
| --- | --- | --- |
| CN(C)C/C=C/C(=O)Nc1ccc(C(=O)N2CCC[C@@H](Nc3ncc(Cl)c(-c4c[nH]c5ccccc45)n3)C2)cc1 | CDK2/Cyclin A2 (Homo sapiens) | 1.3 |

1. CN(C)C/C=C/C(=O)Nc1ccc(N2CCC[C@@H](Nc3ncc(Cl)c(-c4c[nH]c5ccccc45)n3)C2)cc1
2. CN(C)C/C=C/C(=O)Nc1ccc(C(=O)N2CCCC[C@@H](Nc3ncc(Cl)c(-c4c[nH]c5ccccc45)n3)C2)cc1
3. CN(C)C/C=C/C(=O)Nc1ccc(C(=O)N2CCC[C@@H](Nc3ncc(Br)c(-c4c[nH]c5ccccc45)n3)C2)cc1
// ranking: key=IC50, reverse=True Return value: ordered labels per request.
3, 1, 2
(3: 1 µM, 1: 0.623 µM, 2: 0.339 µM)

Reference source for all entries: ChEMBL document CHEMBL4828703
